- measurement_target: hSTING (stimulator of interferon genes) (Homo sapiens, UniProt Q86WV6, H232R)
- Construct: C-terminal domain, residues 149-341, C-terminal 6×His tag (WT = R232)
- Sequence (Q86WV6 149-341 H232R): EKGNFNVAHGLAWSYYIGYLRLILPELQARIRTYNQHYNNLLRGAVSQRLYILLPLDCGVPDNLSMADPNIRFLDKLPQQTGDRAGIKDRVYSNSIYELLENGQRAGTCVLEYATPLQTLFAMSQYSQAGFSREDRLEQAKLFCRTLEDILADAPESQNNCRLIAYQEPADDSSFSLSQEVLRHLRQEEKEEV
- method: isothermal titration calorimetry; DSF shift (+[…]°C)
property_label: Kd

Exercise: Any idea what Kd was measured for `Nc1nc2c(ncn2[C@@H]2O[C@@H]3CO[P@](=O)(O)O[C@H]4[C@@H](O)[C@H](n5cnc6c(=O)[nH]c(N)nc65)O[C@@H]4CO[P@](=O)(O)O[C@H]3[C@H]2O)c(=O)[nH]1` ?
Key: 3.3 µM
